system: IGROV-1; assay: NCI tumour cell line growth inhibition, 48 h
Activity calls are given as the source filed them. No stated cut-off is given here; in the data, active = GI50 up to about 1.1 µM and inactive = higher.
GI50 values for the molecules below.

Here is how some molecules turned out for GI50.
molecule	result
Cc1nnc2n1N=C(c1ccc(-c3ccc([N+](=O)[O-])cc3)o1)CS2	> 100 µM (inactive)
CCN(C(=O)N[C@@H](Cc1ccccc1)C(=O)N[C@@H](CC(C)C)C(=O)OC)c1ccccc1	17 µM (inactive)
CCOC(=O)c1cc(C2(O)CCN(CC(C)CC)C2=O)c(-c2cc(C)no2)[nH]1 (centres undefined)	> 100 µM (inactive)

Form entry - test system: IGROV-1; read-out: GI50; molecule: CC1(C)OCC(C(O)C2OC(C)(C)OC2/C=N\O)O1 (centres undefined)
> 100 µM (inactive)

* * *

test system: HL-60; assay: NCI tumour cell line growth inhibition, 48 h
Calls of active or inactive are those of the source. Rule as the data show it: active = GI50 up to about 1.1 µM and inactive = higher.
Can you answer with just one of these options? T = active, F = inactive

compound	classification
CC1CCC(C(C)C)C(O[C@@H]2OC(=O)C[C@@H]2Sc2ccccc2)C1 (stereo not given in full)	F
COC1CC(OC2C(C)OC(OC3C(C)OC(OC4C(C)OC(O[C@H]5CC[C@@]6(C)C(=CC[C@]7(O)[C@@H]6C[C@@H](O)[C@@]6(C)[C@]7(O)CC[C@@]6(O)C(C)=O)C5)CC4OC)CC3OC)CC2OC)OC(C)C1O (stereo not given in full)	F
O=C(O/N=C1\CCCC\C1=C/c1ccccc1)c1ccc([N+](=O)[O-])cc1	F
CSc1ccc(/C=C2\CNC/C(=C\c3ccc(SC)cc3)C2=O)cc1	F
Cc1ccc(/N=N/C(=O)NNc2ccc(C)cc2Br)c(Br)c1	F

Recorded call for CC(C)OP(=O)(OC(C)C)/C(=N/Nc1ccc([N+](=O)[O-])cc1)NNC(=O)c1ccccc1 ?
F

How was COc1c(N2CCCCC2)c2c(=O)c3ccccc3oc2c2cc(C)oc12 classified in this test?
F

What was the test verdict on CCOC(=O)CCn1[nH]c(=O)c(Cl)c(Cl)c1=O ?
F

Which outcome did this test record for the compound CC(=O)NC1C(O)C(O)C(CO)OC1n1ncc(=O)[nH]c1=O (stereo not given) ?
F

Recorded test outcome, item C=CC[P@]1(=O)O[C@H](c2ccccc2)[C@H](C)N1C
F

What did the test return for Cc1ccn2c(=O)cc(CN3CCOCC3)nc2c1 ?
F

* * *

test system: OVCAR-4; test: NCI tumour cell line growth inhibition, 48 h
Calls of active or inactive are those of the source. No stated cut-off is given here; in the data, active = GI50 up to about 1.1 µM and inactive = higher.
Here, each record is paired with measured GI50 data.

The examples below pair each entry with its known result.
compound	GI50
CC(NC(=O)N(C)C)NC(=O)N(C)C	> 10 µM (inactive)
O=C(O)C(CS)NCc1c2ccccc2[n+]([O-])c2ccccc12 (stereo not drawn)	24.9 µM (inactive)
O=c1sc2c(s1)SSSSS2	> 50 µM (inactive)

I have this compound here, O=C1CSC2(CC(/C=C/C=C/c3ccccc3)=NN2c2cccc(S(=O)(=O)O)c2)N1c1nc2ccccc2s1 (stereo not drawn) , and I need its recorded GI50.
36.9 µM (inactive)

So what's the measured GI50 for this one? c1ccc2c(c1)cc(C1NCCc3nc[nH]c31)c1ccccc12 (stereo not drawn)
37.2 µM (inactive)

Param item = CCCCCCCCCCCCCCCC(=O)OCC1OC(n2ccc(N)nc2=O)C(O)C1O (stereo not drawn) ; retrieve measured GI50.
> 100 µM (inactive)

Field request: GI50 | item: Cc1cn(C2CC(N=[N+]=[N-])C(CO)O2)c(=O)n(CCCCBr)c1=O (stereo not drawn)
> 100 µM (inactive)

Which GI50 is reported for this compound? CN(C)CCN(C)C(=O)c1cccc2cccc(C(=O)O)c12
> 100 µM (inactive)

* * *

Recorded GI50 values for a group of molecules are listed next.
test system: UO-31; assay: NCI tumour cell line growth inhibition, 48 h
The source made the active and inactive calls. Cut-off read from the data, not from the text of the source: active = GI50 up to about 1.1 µM and inactive = higher.

As a guide, the following entries are already answered.
molecule	target_desc	GI50
CC(=O)Oc1c(OC(C)C)c(C)c(O[Si](C(C)C)(C(C)C)C(C)C)c2[nH]c3ccccc3c12	UO-31	> 100 µM (inactive)
CC(O)C1CC1(CO)CNc1cc(Cl)nc(N)n1 (stereo not given)	UO-31	> 100 µM (inactive)
Cc1oc(N)c(S(=O)(=O)/C(C#N)=C/c2ccccc2[N+](=O)[O-])c1C	UO-31	16.4 µM (inactive)

I'd like to know its GI50. The molecule in question is COc1cc(C2c3cc4c(cc3[C@@H](Nc3ccccc3)C3CO[C@@H](OC)[C@H]23)OCO4)cc(OC)c1O (stereo not given in full)
3.01 µM (inactive)

Given the entry COC(=O)C(CCc1ccccc1I)C1=CCC2(CC1)OCCO2 (stereo not given) , report its measured GI50.
23.1 µM (inactive)

Which GI50 reading was recorded for the molecule O=C(O)C(CS)NCc1c2ccccc2[n+]([O-])c2ccccc12 (stereo not given) ?
17.5 µM (inactive)

Entry under review: CN(C(=O)/C=C/c1ccccc1)C1C2CN3CCC(O2)C13 (stereo not given) . Reported GI50?
> 100 µM (inactive)

* * *

Overview of recorded GI50 for various compounds
system: SF-295; assay: NCI tumour cell line growth inhibition, 48 h
Active and inactive are the calls of the source. No stated cut-off is given here; in the data, active = GI50 up to about 1.1 µM and inactive = higher.

Consider the worked cases shown below.
compound	result
C[C@]12CCC(=O)C=C1CC[C@@H]1[C@@H]2[C@@H](O)C[C@@]2(C)[C@H]1CC[C@]2(O)C(=O)COC(=O)COCC(=O)O	> 100 µM (inactive)
COc1cc(-c2cc(O)c3ccccc3n2)cc(OC)c1OC	> 75 µM (inactive)

Which measured GI50 value corresponds to CC(C)=CCN1c2ccccc2NC(=O)CC1C (stereo not given) ?
> 100 µM (inactive)

// query GI50 value for entry Nc1ccc(/N=N/c2c(S(=O)(=O)O)cc3ccccc3c2S(=O)(=O)O)cc1
> 100 µM (inactive)

Entry CCOC(=O)c1nc2ccc(C(F)(F)F)cc2nc1Oc1cc(OC)c(OC)c(OC)c1 has what GI50?
97.3 µM (inactive)

* * *

test system: MDA-MB-435; assay: NCI tumour cell line growth inhibition, 48 h
Activity calls are given as the source filed them. Cut-off read from the data, not from the text of the source: active = GI50 up to about 1.1 µM and inactive = higher.
Reported GI50 by item:

molecule	GI50
CN(C)CCNc1ccc2nnn3c4ccc(O)cc4c(=O)c1c23	4.07 µM (inactive)
COc1ccccc1NC(=O)CC(=O)NN	> 100 µM (inactive)
CCOC(=O)CC1C(C(=O)OCC)=Cn2c([nH]c3cccc4cccc2c43)=C1C(=O)OCC (stereo not given)	54.3 µM (inactive)
CCOC(=O)NC1CN2CCC1CC2 (stereo not given)	> 100 µM (inactive)

Below: the item to evaluate.
Field request: GI50 | item: c1cc(-c2csc(-c3ccsc3)c2)cs1
> 100 µM (inactive)

* * *

test system: M14; test: NCI tumour cell line growth inhibition, 48 h
Activity calls are given as the source filed them. Rule as the data show it: active = GI50 up to about 1.1 µM and inactive = higher.
Your answer must be one of the following: Yes = active, No = inactive

# count of solved cases: 5
compound	classification
O=C(CCc1ccccc1)ON1C(=S)C(c2ccccc2)(c2ccccc2)N=C1Sc1ccccc1	No
COc1ccc(CC(CO)NC(=O)OCc2ccccc2)cc1Oc1ccc(CC(CO)NC(=O)OCc2ccccc2)cc1 (stereo unspecified)	No
O=C(C#Cc1cnc(O)nc1O)c1ccccc1Cl	No
COc1cc2c(c(OC)c1O)-c1ccc(OC)c(=O)cc1[C@@H](NC(=O)C(F)(F)F)CC2	Yes
O=C1c2ccccc2C(=O)N1C1(C(=O)NC2(C(=O)O)CCCC2)CCCC1	No

Hi, do you know how CC(C)(C)N/N=C(\Cc1occc(=O)c1O)C(=O)Nc1ccc([N+](=O)[O-])cc1[N+](=O)[O-] came out in this test?
No

* * *

test system: HOP-92; experiment: NCI tumour cell line growth inhibition, 48 h
Calls of active or inactive are those of the source. Rule as the data show it: active = GI50 up to about 1.1 µM and inactive = higher.
endpoint_label: GI50

A selection of reference data follows.
compound	result
Nc1c2ccccc2nc2ccc3c(=O)cc(-c4ccccc4)oc3c12	1240 nM (inactive)
CN(C)CCNC(=O)c1cccc2c1nc(-c1ccccc1)c1ccccc12	2830 nM (inactive)

Param readout = GI50; param system = HOP-92; param query = Cc1cc(N(CC(C)Br)CC(C)Br)ccc1/N=N/c1ccccc1C(=O)O (stereo not drawn) ; response: value
2240 nM (inactive)

* * *

The reader will find reported GI50 values listed item by item below.
test system: BT-549; experiment: NCI tumour cell line growth inhibition, 48 h
The source made the active and inactive calls. Rule as the data show it: active = GI50 up to about 1.1 µM and inactive = higher.

compound	GI50
CN(C)CC(O)c1ccc(Cl)c2ccccc12 (centres undefined)	57.1 µM (inactive)
COc1cc(C2=N/C(=C/c3cccs3)C(=O)O2)cc(OC)c1OC	> 100 µM (inactive)
O=C1C(Sc2ccc3ccccc3c2)=C(Sc2ccc3ccccc3c2)C(=O)c2ccccc21	12 µM (inactive)
COc1ccc2c(-c3ccc(OCCN(C)C)cc3)c(Oc3ccccc3)c(=O)oc2c1	11 µM (inactive)
CCC1=C(CC2NCCc3cc(OC)c(OC)cc32)CC2c3ccccc3CCN2C1 (centres undefined)	49.4 µM (inactive)

// below: GI50 requested for another compound
Checklist item: GI50 tested on BT-549, entry O=c1sc2c(s1)SSSSS2 , value?
> 50 µM (inactive)
